- Test system: FXR:RXRa (NR concentration 270 nM, RXRa partner concentration 90 nM)
- ASSAY COMMENT: PBM binding z-score (relative to random genomic background probes); higher = stronger binding; sequences stand for … in GC…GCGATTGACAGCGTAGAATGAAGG
Entry flag: label 1 if PBM binding z-score reaches 3; label 0 if it does not.

Prompt line: Given the entry `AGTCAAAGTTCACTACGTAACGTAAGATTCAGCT` , answer whether its PBM binding z-score meets or surpasses 3.
Response line: label 1

Prompt line: Quick check, PBM binding z-score >= 3? `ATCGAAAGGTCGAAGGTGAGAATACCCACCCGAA`
Response line: label 1

Prompt line: Threshold query (PBM binding z-score >= 3) on `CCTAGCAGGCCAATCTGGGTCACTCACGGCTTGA`
Response line: label 0

Prompt line: Determine whether this sequence has PBM binding z-score no lower than 3: `AATCCAGGGTCACTAGGCCAGAGTAGGTACGAAT`
Response line: label 1

Prompt line: Determine whether measured PBM binding z-score meets or exceeds 3 for `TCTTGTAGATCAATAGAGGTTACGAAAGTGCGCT`
Response line: label 0

Prompt line: Given the entry `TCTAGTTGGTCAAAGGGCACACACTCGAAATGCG` , answer whether its PBM binding z-score meets or surpasses 3.
Response line: label 0

Prompt line: State whether the measured PBM binding z-score reaches 3, counting equality as reaching it, for `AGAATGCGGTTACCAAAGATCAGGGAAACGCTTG`
Response line: label 0

Prompt line: API: above_or_equal(metric=PBM binding z-score, cutoff=3) for item `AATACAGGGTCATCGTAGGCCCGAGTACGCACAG`
Response line: label 1

Prompt line: Given the entry `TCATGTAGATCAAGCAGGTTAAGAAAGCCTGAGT` , answer whether its PBM binding z-score meets or surpasses 3.
Response line: label 0

Prompt line: Identify whether the reported PBM binding z-score of the following sequence is 3 or greater: `ACTTACGGGTCAACGAGGTTATCGCACGCGTATA`
Response line: label 1

Prompt line: Could you verify whether the entry `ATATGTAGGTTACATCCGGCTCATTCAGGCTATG` shows PBM binding z-score of no less than 3?
Response line: label 0

Prompt line: Form field: PBM binding z-score at least 3? Entry: `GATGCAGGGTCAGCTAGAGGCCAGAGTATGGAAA`
Response line: label 1

Prompt line: Quick check, PBM binding z-score >= 3? `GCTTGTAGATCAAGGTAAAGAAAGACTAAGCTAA`
Response line: label 0

Prompt line: Hi team, for `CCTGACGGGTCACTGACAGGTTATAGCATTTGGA` , is the recorded PBM binding z-score at or above 3?
Response line: label 1

Prompt line: Could you please find out whether `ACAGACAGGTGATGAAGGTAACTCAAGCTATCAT` has PBM binding z-score that meets 3 or exceeds it?
Response line: label 0

Prompt line: Item `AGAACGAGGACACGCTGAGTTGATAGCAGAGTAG` with PBM binding z-score of 3 or above?
Response line: label 0

Prompt line: Textbook exercise: given the entry `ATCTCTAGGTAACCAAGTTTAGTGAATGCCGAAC` , state whether its PBM binding z-score is greater than or equal to 3.
Response line: label 0

Prompt line: Does PBM binding z-score meet or surpass 3 for `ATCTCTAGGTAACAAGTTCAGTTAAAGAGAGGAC` ?
Response line: label 0

Prompt line: Does the reported PBM binding z-score for `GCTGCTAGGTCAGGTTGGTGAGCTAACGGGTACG` fall at or above the 3 mark?
Response line: label 0

Prompt line: Does the sequence `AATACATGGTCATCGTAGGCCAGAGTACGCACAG` have recorded PBM binding z-score that is 3 or more?
Response line: label 0

Prompt line: Quick check: does `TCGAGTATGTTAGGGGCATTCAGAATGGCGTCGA` have PBM binding z-score greater than or equal to 3?
Response line: label 0

Prompt line: Quick check, PBM binding z-score >= 3? `AGAATGAGGTTAGTAAGATCAGGGAATTGCGGTC`
Response line: label 0

Prompt line: Has `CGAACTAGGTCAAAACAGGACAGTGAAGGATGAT` a recorded PBM binding z-score greater than or equal to 3?
Response line: label 1

Prompt line: API: above_or_equal(metric=PBM binding z-score, cutoff=3) for item `AGAATGAGGTTATACGTAGATCCGGGAAGAAAGT`
Response line: label 0

Prompt line: Tell me whether PBM binding z-score is at least 3 here: `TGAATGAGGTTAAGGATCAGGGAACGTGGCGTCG`
Response line: label 0

Prompt line: Hello, I need to know if `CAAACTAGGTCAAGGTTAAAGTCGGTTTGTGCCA` has measured PBM binding z-score not below 3. Thanks!
Response line: label 1

Prompt line: Quick check, PBM binding z-score >= 3? `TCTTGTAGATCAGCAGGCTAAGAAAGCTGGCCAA`
Response line: label 0

Prompt line: Form field: PBM binding z-score at least 3? Entry: `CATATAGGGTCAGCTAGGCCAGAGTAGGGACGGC`
Response line: label 1

Prompt line: Given the entry `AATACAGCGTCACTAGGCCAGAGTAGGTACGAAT` , answer whether its PBM binding z-score meets or surpasses 3.
Response line: label 0

Prompt line: Could you please find out whether `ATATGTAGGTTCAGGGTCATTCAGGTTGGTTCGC` has PBM binding z-score that meets 3 or exceeds it?
Response line: label 1

Prompt line: # bool: PBM binding z-score of `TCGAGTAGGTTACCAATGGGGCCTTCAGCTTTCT` >= 3
Response line: label 0

Prompt line: Does `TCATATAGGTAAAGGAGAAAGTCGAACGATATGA` have a reported PBM binding z-score of at least 3?
Response line: label 0

Prompt line: // inclusive: PBM binding z-score at least 3? input: `TCTAGCAGGCCAGAGGGTCACTCAGGAGGTACGG`
Response line: label 0

Prompt line: Given the entry `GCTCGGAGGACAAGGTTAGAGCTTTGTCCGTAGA` , answer whether its PBM binding z-score meets or surpasses 3.
Response line: label 0

Prompt line: Has `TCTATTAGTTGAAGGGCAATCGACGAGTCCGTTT` a recorded PBM binding z-score greater than or equal to 3?
Response line: label 0

Prompt line: Quick check, PBM binding z-score >= 3? `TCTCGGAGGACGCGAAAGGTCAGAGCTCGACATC`
Response line: label 0

Prompt line: Dear colleague, could you confirm whether `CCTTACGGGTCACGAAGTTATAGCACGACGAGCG` has PBM binding z-score at or above 3?
Response line: label 1

Prompt line: Evaluate `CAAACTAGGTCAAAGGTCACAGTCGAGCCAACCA` : PBM binding z-score at minimum 3?
Response line: label 1

Prompt line: Test whether the sequence `AGAATGAGGTTAAGGTCAGGGAAACAGAATACAT` records PBM binding z-score of 3 or higher.
Response line: label 1

Prompt line: API: above_or_equal(metric=PBM binding z-score, cutoff=3) for item `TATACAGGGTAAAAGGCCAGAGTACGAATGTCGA`
Response line: label 0

Prompt line: Evaluate `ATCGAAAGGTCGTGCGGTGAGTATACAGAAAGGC` : PBM binding z-score at minimum 3?
Response line: label 1

Prompt line: Confirm if PBM binding z-score reported for the sequence `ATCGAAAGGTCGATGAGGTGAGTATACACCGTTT` is 3 or above.
Response line: label 1

Prompt line: Please tell me: is the sequence `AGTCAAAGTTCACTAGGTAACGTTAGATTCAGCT` at or over 3 in terms of PBM binding z-score?
Response line: label 1

Prompt line: Is it the case that `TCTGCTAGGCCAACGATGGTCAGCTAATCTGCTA` has PBM binding z-score reaching or exceeding 3?
Response line: label 0

Prompt line: API: above_or_equal(metric=PBM binding z-score, cutoff=3) for item `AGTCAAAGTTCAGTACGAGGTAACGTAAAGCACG`
Response line: label 1

Prompt line: Please indicate if the recorded PBM binding z-score for `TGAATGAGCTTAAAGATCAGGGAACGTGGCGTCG` meets or exceeds 3.
Response line: label 0

Prompt line: State whether the measured PBM binding z-score reaches 3, counting equality as reaching it, for `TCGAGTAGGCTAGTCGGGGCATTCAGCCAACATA`
Response line: label 0

Prompt line: Given `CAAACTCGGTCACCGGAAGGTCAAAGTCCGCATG` , state whether its PBM binding z-score is at least 3.
Response line: label 1

Prompt line: Dear colleague, could you confirm whether `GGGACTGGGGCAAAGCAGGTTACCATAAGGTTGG` has PBM binding z-score at or above 3?
Response line: label 0

Prompt line: Dear colleague, could you confirm whether `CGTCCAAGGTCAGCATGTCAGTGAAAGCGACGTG` has PBM binding z-score at or above 3?
Response line: label 1

Prompt line: Hi team, for `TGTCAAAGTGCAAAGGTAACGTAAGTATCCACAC` , is the recorded PBM binding z-score at or above 3?
Response line: label 0
